# Lookup of reported koff keyed by entry
Target: T1, human GFRα3 expressed with a C-terminal mFc tag (human)
T1 construct: also called hGFRα3-mFc
T1 chain: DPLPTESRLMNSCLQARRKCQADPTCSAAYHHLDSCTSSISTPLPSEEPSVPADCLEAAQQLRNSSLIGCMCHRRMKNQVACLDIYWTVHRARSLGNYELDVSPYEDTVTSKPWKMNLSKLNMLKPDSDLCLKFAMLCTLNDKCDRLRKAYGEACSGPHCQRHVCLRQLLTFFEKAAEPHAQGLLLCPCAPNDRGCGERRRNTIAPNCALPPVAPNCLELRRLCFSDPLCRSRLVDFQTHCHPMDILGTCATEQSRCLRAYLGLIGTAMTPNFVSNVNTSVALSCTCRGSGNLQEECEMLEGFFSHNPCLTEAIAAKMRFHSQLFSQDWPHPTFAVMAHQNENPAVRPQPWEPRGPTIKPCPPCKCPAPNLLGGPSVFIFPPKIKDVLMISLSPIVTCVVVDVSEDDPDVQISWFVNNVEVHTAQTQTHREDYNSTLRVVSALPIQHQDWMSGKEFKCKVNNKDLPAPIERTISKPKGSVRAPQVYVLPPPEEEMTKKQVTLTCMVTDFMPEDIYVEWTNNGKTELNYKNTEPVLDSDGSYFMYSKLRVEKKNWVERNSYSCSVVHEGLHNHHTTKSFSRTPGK
Experiment: SPR, Ab captured, 25C

Example cases with answers are listed next.
{"columns": ["binder", "koff"],
 "data": [
  ["H4H2364S (antibody, human IgG4, V domains shown, human IgG4 Fc (H4H)) VH: EVQLVESGGGLEQPGGSLRLSCAASGFTFSSYVMSWVRQVPGKGLEWVSVISGSGGSTYYADSVKGRFTISRDNSKNTLYLQMNSLRAEDTAVYYCAKPSSYSSSNFHYGMDVWGQGTTVTVSS VL: DIQMTQSPYSVSASVGDRVTITCRASQGISSWLAWYQQKPGRAPKLLIYAASSLQSGVPSRFSGSGSGTDFTLTISSLQPEDFATYYCQKTNSFPFTFGPGTKVEIK", "≤ 1e-06 s⁻¹"],
  ["H4H2357S (antibody, human IgG4, V domains shown, human IgG4 Fc (H4H)) VH: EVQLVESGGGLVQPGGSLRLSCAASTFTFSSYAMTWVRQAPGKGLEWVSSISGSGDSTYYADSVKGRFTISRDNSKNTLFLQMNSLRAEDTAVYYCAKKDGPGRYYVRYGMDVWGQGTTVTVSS VL: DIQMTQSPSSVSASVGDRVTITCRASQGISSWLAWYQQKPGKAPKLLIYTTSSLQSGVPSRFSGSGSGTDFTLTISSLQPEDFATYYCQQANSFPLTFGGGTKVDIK", "2.52e-05 s⁻¹"]
]}

Now take the following binder into account.
Q: May I ask what koff has been recorded for H4H2352S (antibody, human IgG4, V domains shown, human IgG4 Fc (H4H); also called H4H2352S-1) VH: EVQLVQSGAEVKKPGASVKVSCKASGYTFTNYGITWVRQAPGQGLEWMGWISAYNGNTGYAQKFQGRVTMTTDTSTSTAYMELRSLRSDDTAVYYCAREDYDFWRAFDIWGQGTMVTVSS VL: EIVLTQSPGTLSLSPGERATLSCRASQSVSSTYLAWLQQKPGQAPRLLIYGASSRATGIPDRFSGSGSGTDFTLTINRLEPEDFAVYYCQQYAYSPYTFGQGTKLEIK ?
Ans: ≤ 1e-06 s⁻¹
